measured.on: T1, Claudin 18.2 (CLDN18.2), expressed on CHOS-CLDN 18.2 / HEK293-CLDN 18.2 / HCC827-CLDN 18.2 cells (human, UniProt P56856-2 1-261)
T1 construct: whole, on cells; The species is not repeated for the CHOS-CLDN 18.2 cells; also called claudin-18A2
test.description: FACS, CHOS-CLDN18.2 cells, 0.020 µg/ml
Threshold 10000. FACS reading below it: Satisfied. FACS reading at it or above: Not satisfied.

binder="QP024025 (antibody, human IgG1, V domains shown, also called IMAB362; 175D10(IMAB362)) VH: QVQLQQPGAELVRPGASVKLSCKASGYTFTSYWINWVKQRPGQGLEWIGNIYPSDSYTNYNQKFKDKATLTVDKSSSTAYMQLSSPTSEDSAVYYCTRSWRGNSFDYWGQGTTLTVSS VL: DIVMTQSPSSLTVTAGEKVTMSCKSSQSLLNSGNQKNYLTWYQQKPGQPPKLLIYWASTRESGVPDRFTGSGSGTDFTLTISSVQAEDLAVYYCQNDYSYPFTFGSGTKLEIK" assigned_class=Satisfied
binder="QP14361435 (antibody, human IgG1, kappa, V domains shown, Humanized from QP190191) VH: EVQLVESGGGLVKPGGSLRLSCAASGFTFSNYAMSWVRQAPGKGLEWVSSIISGGRTYYLDSEKGRFTISRDNAKNSLYLQMNSLRAEDTAVYYCTRIYYGNSFDYWGQGTLVTVSS VL: DIVMTQSPDSLAVSLGERATISCKSSQSLLNSGNQKNYLTWYQQKPGQPPKLLIYWASTRESGVPDRFTGSGSGTDFTLTISSLQAEDVAVYYCQNDYSYPFTFGQGTKLEIKR" assigned_class=Satisfied
binder="QP14371433 (antibody, human IgG1, kappa, V domains shown, Humanized from QP190191; also called QP14331437) VH: EVQLVESGGGLVKPGGSLRLSCAASGFTFSNYAMSWVRQAPGKGLEWVASIISGGRTYYLDSEKGRFTISRDNAKNSLYLQMNSLRAEDTAVYYCTRIYYGNSFDYWGQGTLVTVSS VL: DIVMTQSPDSLAVSLGERATINCKSSQSLLNSGNQKNYLTWYQQKPGQPPKLLIYWASTRESGVPDRFSGSGSGTDFTLTISSLQAEDVAVYYCQNDYSYPFTFGQGTKLEIKR" assigned_class="Not satisfied"
binder="QP190191 (antibody, human IgG1, V domains shown, Chimeric; also called 36A2; mouse-derived chimeric antibody QP190191) VH: EVKLVESGGGLVKPGGSLKLSCAASGFTFSNYAMSWVRQTPEKRLEWVASIISGGRTYYLDSEKGRFTISRDNARNNLYLQMSSLRSEDTAMYYCTRIYYGNSFDYWGQGTTLTVSS VL: DIVMTQSPSSQTVTAGEKVTMSCKSSQSLLNSGNQKNYLTWYQQKPGQPPKLLIYWASTRESGVPDRFTGSGSGTDFTLTISNMQAEDLAVYYCQNDYSYPFTFGSGTKLEIK" assigned_class=Satisfied
